protocol.notes: Lipophilicity, log D of the compound at pH 2.7 by HPLC method
Assay type: physicochemical
conditions: buffer
observation.type: logD

N#CC1C(=O)c2ccccc2-n2c1nc1ccccc12 (stereo not drawn) | 2.6
N#Cc1c(=O)c2sc3ccccc3c2n2c1[nH]c1ccccc12 | 3.76

P. CC(C)CNc1c(C#N)c2nc3ccccc3n2c2c1sc1ccccc12
Q. N#CC1C(=O)c2ccc(F)cc2-n2c1nc1ccccc12 (stereo not drawn)
R. N#Cc1c(Cl)c2sc3ccccc3c2n2c1nc1ccccc12
[ask] Please rank these compounds by logD in descending order. Write the labels, ordered according to the request.
[reply] R, P, Q

---

protocol.notes: Lipophilicity, log D of the compound at pH 7.4 by HPLC method
Format: physicochemical
conditions: buffer, read-out: logD
observation.type: logD

In the examples that follow, each entry is paired with its recorded logD.
CN(C)CCCNc1ccc2c(c1)sc1cc(C#N)c3nc4ccccc4n3c12 | 2.91
N#Cc1cc2ccc(N3CCCCC3)cc2n2c1nc1ccccc12 | 7.07

1. N#Cc1c(N2CCCCC2)c2ccccc2n2c1nc1ccccc12
2. N#Cc1c(=O)c2sc3ccccc3c2n2c1[nH]c1ccccc12
[ask] Task for the reader: decide whether 1 or 2 has the larger logD. Respond using the label that marks the chosen record.
[reply] 1

---

protocol.notes: Lipophilicity, log D of the compound at pH 2.7 by HPLC method
Assay type: physicochemical
conditions: buffer
observation.type: logD

N#Cc1c(Cl)c2ccc(F)cc2n2c1nc1ccccc12 | 6.11
N#Cc1cc2ccc(N3CCCCC3)cc2n2c1nc1ccccc12 | 7
CN(C)CCCNc1c(C#N)c2nc3ccccc3n2c2ccccc12 | -0.05
CN(C)CCCNc1ccc2c(c1)sc1cc(C#N)c3nc4ccccc4n3c12 | 1.03
N#Cc1cc2sc3cc(N4CCNCC4)ccc3c2n2c1nc1ccccc12 | 0.84
N#Cc1c(N2CCCCC2)c2ccc(N3CCCCC3)cc2n2c1nc1ccccc12 | 7.51
N#Cc1c(Cl)c2sc3cc(F)ccc3c2n2c1nc1ccccc12 | 4.04
N#Cc1c(N2CCNCC2)c2sc3ccccc3c2n2c1nc1ccccc12 | 1.08

P. CC(C)CNc1c(C#N)c2nc3ccccc3n2c2ccccc12
Q. N#Cc1cc2ccc(N3CCNCC3)cc2n2c1nc1ccccc12
R. N#Cc1c(N2CCNCC2)c2ccc(N3CCNCC3)cc2n2c1nc1ccccc12
S. CN(C)CCCNc1c(C#N)c2nc3ccccc3n2c2c1sc1ccccc12
T. N#Cc1c(=O)c2sc3cc(F)ccc3c2n2c1[nH]c1ccccc12
[ask] Hey, quick one: sort these by logD, low to high? Write the labels, ordered according to the request.
[reply] R, Q, S, P, T
